Numbers sourced from paper PMC9959676.

# Tested on: Pseudomonas aeruginosa
# protocol-details: Antibacterial agar-well diffusion
# Format: cell-based
# condition-details: sample 100 mg/5 mL in DMSO; ceftriaxone sodium 20 mg/10 mL; 37 °C, 24 h; 6 mm wells
test-readout: Zone of Inhibition Gram -Ve Bacteria P. aeruginosa Mean ± SEM (millimeters)

| compound | assay-value |
| --- | --- |
| CCCCC(=O)N(Cc1ccc(-c2ccccc2-c2nn[nH]n2)cc1)C(C(=O)Oc1ccccc1C(=O)O)C(C)C (stereo not drawn) | 11.46 |
| CCCCC(=O)N(Cc1ccc(-c2ccccc2-c2nn[nH]n2)cc1)C(C(=O)Oc1ccc(C=O)cc1)C(C)C (stereo not drawn) | 10.73 |
| CCCCC(=O)N(Cc1ccc(-c2ccccc2-c2nn[nH]n2)cc1)C(C(=O)Oc1ccc(C=O)cc1OC)C(C)C (stereo not drawn) | 09.33 |
| CCCCC(=O)N(Cc1ccc(-c2ccccc2-c2nn[nH]n2)cc1)C(C(=O)Oc1ccc(CC(N)C(=O)O)cc1)C(C)C (stereo not drawn) | 10.76 |
| CCCCC(=O)N(Cc1ccc(-c2ccccc2-c2nn[nH]n2)cc1)C(C(=O)OC(C(=O)c1ccccc1)c1ccccc1)C(C)C (stereo not drawn) | 10.36 |
| CCCCC(=O)N(Cc1ccc(-c2ccccc2-c2nn[nH]n2)cc1)C(C(=O)Oc1ccc2ccccc2c1)C(C)C (stereo not drawn) | 12.63 |
| CCCCC(=O)N(Cc1ccc(-c2ccccc2-c2nn[nH]n2)cc1)C(C(=O)Oc1cccc2ccccc12)C(C)C (stereo not drawn) | 10.90 |
| CCCCC(=O)N(Cc1ccc(-c2ccccc2-c2nn[nH]n2)cc1)C(C(=O)Oc1ccc(Cl)cc1Cl)C(C)C (stereo not drawn) | 09.36 |
| CCCCC(=O)N(Cc1ccc(-c2ccccc2-c2nn[nH]n2)cc1)C(C(=O)O)C(C)C (stereo not drawn) [AV0, reference compound] | 12.43 |

* * *

Recorded measurements of IC50, one per entry
# study-target: urease (Canavalia ensiformis)
# protocol-details: biochemical
# Assay type: biochemical
# condition-details: urease, pH 7.0, 37 °C; read-out: IC50 ± SEM

| compound | u | IC50 |
| --- | --- | --- |
| CCCCC(=O)N(Cc1ccc(-c2ccccc2-c2nn[nH]n2)cc1)C(C(=O)Oc1ccc(C=O)cc1OC)C(C)C (stereo not drawn) [AV2] | µM | 0.28 |
| CCCCC(=O)N(Cc1ccc(-c2ccccc2-c2nn[nH]n2)cc1)C(C(=O)OC(C(=O)c1ccccc1)c1ccccc1)C(C)C (stereo not drawn) [AV1] | µM | 2.56 |
| NC(N)=S [Standard Thiourea, Thiourea, reference compound] | µM | 4.24 |

* * *

# study-target: urease (Canavalia ensiformis, UniProt P07374)
# Sequence (P07374 whole entry, looked up): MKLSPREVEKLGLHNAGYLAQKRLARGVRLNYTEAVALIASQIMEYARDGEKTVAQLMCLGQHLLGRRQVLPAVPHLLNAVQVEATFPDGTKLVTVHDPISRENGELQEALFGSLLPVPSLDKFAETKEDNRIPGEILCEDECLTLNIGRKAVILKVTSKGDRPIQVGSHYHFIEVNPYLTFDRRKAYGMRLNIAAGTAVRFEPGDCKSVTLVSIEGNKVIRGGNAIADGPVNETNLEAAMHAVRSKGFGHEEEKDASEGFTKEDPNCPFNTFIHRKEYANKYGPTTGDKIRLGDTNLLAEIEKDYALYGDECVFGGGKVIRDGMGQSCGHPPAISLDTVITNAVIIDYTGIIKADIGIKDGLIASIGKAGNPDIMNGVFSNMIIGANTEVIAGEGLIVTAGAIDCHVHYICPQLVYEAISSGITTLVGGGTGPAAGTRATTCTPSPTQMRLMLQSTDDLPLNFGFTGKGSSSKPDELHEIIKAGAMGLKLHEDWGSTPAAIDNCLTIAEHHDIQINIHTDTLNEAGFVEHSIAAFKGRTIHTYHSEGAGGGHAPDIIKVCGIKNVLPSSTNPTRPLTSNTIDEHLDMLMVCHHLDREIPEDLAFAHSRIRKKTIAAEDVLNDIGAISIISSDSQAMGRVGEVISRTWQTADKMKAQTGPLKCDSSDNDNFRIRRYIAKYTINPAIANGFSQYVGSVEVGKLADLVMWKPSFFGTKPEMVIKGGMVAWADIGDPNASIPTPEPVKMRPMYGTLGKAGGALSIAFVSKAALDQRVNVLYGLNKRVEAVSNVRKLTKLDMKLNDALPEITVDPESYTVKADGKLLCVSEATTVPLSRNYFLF
# protocol-details: biochemical
# Format: biochemical
# condition-details: urease, pH 7.0, 37 °C; read-out: IC50 ± SEM
In this section we review reported IC50 values for a set of compounds.

| compound | IC50 (nM) |
| --- | --- |
| CCCCC(=O)N(Cc1ccc(-c2ccccc2-c2nn[nH]n2)cc1)C(C(=O)Oc1ccc2ccccc2c1)C(C)C (stereo not shown) | 2050 |
| CCCCC(=O)N(Cc1ccc(-c2ccccc2-c2nn[nH]n2)cc1)C(C(=O)Oc1cccc2ccccc12)C(C)C (stereo not shown) | 2260 |
| CCCCC(=O)N(Cc1ccc(-c2ccccc2-c2nn[nH]n2)cc1)C(C(=O)Oc1ccc(Cl)cc1Cl)C(C)C (stereo not shown) | 1290 |
| CCCCC(=O)N(Cc1ccc(-c2ccccc2-c2nn[nH]n2)cc1)C(C(=O)Oc1ccc(C=O)cc1)C(C)C (stereo not shown) | 2130 |
